Collected inhibition values appear next to each entry.
assay method text: growth loss of RecBCD+ E. coli with mutant T4 phage, counter-screen for AddAB inhibitor project, absorbance, V66 E. coli (AID 488955);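 also: optical density read after an 18 h incubation at 37 °C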
condition summary: OD growth, at 11.9 µM, stronger effect = higher value
Some of the results follow. Activity calls are given as the source filed them.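 The calls were made as follows: active = mean inhibition above the mean of solvent-only control wells plus 3 SD (cut at about 4% in these data); inactive = the rest.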

* CC(=O)c1c(C)n([O-])c2ccccc2[n+]1=O | 26.2% (active)
* CCOC(=O)c1ccc(NC(=O)Cn2cnc3cc(C)c(C)cc32)cc1 | 18.4% (active)
* Cc1cccc(NC(=O)Cn2cc(C(=O)c3ccco3)c3ccccc32)c1 | 10.9% (active)
* Cc1cn(C2C=CC(CO)O2)c(=O)[nH]c1=O (stereo not given) | 6.53% (active)
* O=C(CSc1ccc(-c2ccccn2)nn1)Nc1ccccc1 | 6.8% (active)
* Cc1ccc(C(=O)/C=C/Nc2ccc(S(=O)(=O)Nc3onc(C)c3C)cc2)cc1 | 3.94% (inactive)
* O=C(Cn1c(=O)sc2ccccc21)Nc1nc2c(s1)CCCC2 | 4.07% (active)
* COc1c(N2CCN(C(=S)Nc3ccccc3F)C(C)C2)c(F)cc2c(=O)c(C(=O)O)cn(C3CC3)c12 (stereo not given) | 100% (active)

Short answer for C=CC1=C(C(=O)O)N2C(=O)[C@@H](NC(=O)/C(=N\OCC(=O)O)c3csc(N)n3)[C@H]2SC1 : inhibition was 103% (active)

inhibition in this record for COc1cccc(/C=N/Nc2ncc(C(F)(F)F)cc2Cl)c1O : 16.2% (active)
